Source: patent US20210361600A1

experiment: in vivo; details: female, Crl:CD(SD), rat, 140 ug/kg, Cmax

[
  {
    "smiles.representation": "COCCc1ccc(NC(=O)c2ccccc2NS(C)(=O)=O)cc1",
    "reading.unit": "ng/mL",
    "Cmax": 42.3
  }
]

----------
assay: in vivo; settings: female, Crl:CD(SD), rat, 70 ug/kg, AUC0-t

[
  {
    "smiles.representation": "COCCc1ccc(NC(=O)c2ccccc2NS(C)(=O)=O)cc1",
    "AUC(0-t)": "18.5 ng·h/mL"
  }
]

----------
experiment: Intravenous acute toxicity study in Crl:CD(SD) rat (toxicokinetics); format: in vivo; conditions: Crl:CD(SD), rat, plasma; male rats, single IV 2.4 mg/kg, mean

[
  {
    "compound": "COCCc1ccc(NC(=O)c2ccccc2NS(C)(=O)=O)cc1 [Compound A]",
    "half-life, min": 24
  }
]

----------
experiment: Final dose PK in the canine osteoarthritis study; type: in vivo, Beagle dogs; settings: female, beagle, dog, plasma, 0.035 mg/knee, female Beagles, 35 μg IA weekly, after 6th dose, plasma; Mean; read-out: AUC 0-τ

[
  {
    "compound": "COCCc1ccc(NC(=O)c2ccccc2NS(C)(=O)=O)cc1 [Compound A]",
    "reading.unit": "ng·h/mL",
    "AUC": 2.36
  }
]

----------
experiment: in vivo; set-up: species or system Crl:CD(SD) rat; conditions: male, Crl:CD(SD), rat, iv, 0.25 mg/kg, Cmax

[
  {
    "smiles.representation": "COCCc1ccc(NC(=O)c2ccccc2NS(C)(=O)=O)cc1",
    "Cmax, ng/mL": 1940
  }
]
